B1: MLH1 (parent)
chain: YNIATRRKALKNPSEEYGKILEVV

Variants of: B1
Test: protein stability index of a GFP-peptide fusion (GPS, HEK-293T) (PSI 1-6); higher = more stable;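 also: lentivirally expressed fusions sorted by FACS into six bins by GFP to DsRed ratio, PSI derived from sequencing read proportions per bin multiplied by bin number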
Conditions: c terminus: a fixed tail appended
Assign condition met to entries whose protein stability index meets or exceeds 3; assign condition not met to the rest.

seq.string: YNIATRREALKNPSEEYGKILEVV [K8E]
group.label: condition met
--
seq.string: YNIATRRKALKNPSEAYGKILEVV [E16A]
group.label: condition not met
--
seq.string: YNIATDRKALKNPSEEYGKILEVV [R6D]
group.label: condition met
--
seq.string: YNIATRRKALKNPSMEYGKILEVV [E15M]
group.label: condition not met
--
seq.string: YNIATRRKALKNPSGEYGKILEVV [E15G]
group.label: condition not met
